biological target: IKZF2 (Homo sapiens (Human), UniProt Q96SW2+Q9UKS7); assay: In vitro IKZF2 HiBit Assay (HEK293T Flp-in-HiBiT cells); type: cell-based; details: HEK293T Flp-in-HiBiT cells, 6 hrs incubation; read-out: IKZF2 HiBit DC50
Sequence (Q9UKS7 whole entry): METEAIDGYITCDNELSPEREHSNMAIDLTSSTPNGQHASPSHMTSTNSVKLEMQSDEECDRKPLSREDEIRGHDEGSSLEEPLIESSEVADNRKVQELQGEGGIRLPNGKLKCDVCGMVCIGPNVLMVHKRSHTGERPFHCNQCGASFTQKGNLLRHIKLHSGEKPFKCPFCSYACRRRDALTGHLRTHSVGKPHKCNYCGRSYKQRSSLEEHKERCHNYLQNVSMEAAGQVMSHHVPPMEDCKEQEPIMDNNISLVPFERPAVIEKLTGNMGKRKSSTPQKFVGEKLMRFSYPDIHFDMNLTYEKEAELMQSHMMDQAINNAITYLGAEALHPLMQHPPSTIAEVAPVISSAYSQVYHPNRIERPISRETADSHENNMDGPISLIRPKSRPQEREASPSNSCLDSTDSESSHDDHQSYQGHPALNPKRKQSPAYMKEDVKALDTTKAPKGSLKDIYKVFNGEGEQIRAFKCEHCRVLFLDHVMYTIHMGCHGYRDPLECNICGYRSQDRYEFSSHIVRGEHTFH
Sequence (Q96SW2 whole entry): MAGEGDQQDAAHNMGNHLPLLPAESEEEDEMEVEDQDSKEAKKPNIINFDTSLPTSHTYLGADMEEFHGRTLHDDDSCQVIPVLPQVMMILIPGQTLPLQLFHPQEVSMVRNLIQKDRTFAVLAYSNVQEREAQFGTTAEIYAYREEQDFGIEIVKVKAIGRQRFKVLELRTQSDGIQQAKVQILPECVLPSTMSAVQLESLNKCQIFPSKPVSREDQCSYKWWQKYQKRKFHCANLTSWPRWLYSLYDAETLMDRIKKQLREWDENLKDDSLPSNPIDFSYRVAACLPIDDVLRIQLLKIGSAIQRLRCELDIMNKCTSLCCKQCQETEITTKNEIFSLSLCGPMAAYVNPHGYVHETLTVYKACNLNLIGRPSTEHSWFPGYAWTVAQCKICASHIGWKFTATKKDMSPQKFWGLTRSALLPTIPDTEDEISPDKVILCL
Sequence (Q16531 2-1140 partner): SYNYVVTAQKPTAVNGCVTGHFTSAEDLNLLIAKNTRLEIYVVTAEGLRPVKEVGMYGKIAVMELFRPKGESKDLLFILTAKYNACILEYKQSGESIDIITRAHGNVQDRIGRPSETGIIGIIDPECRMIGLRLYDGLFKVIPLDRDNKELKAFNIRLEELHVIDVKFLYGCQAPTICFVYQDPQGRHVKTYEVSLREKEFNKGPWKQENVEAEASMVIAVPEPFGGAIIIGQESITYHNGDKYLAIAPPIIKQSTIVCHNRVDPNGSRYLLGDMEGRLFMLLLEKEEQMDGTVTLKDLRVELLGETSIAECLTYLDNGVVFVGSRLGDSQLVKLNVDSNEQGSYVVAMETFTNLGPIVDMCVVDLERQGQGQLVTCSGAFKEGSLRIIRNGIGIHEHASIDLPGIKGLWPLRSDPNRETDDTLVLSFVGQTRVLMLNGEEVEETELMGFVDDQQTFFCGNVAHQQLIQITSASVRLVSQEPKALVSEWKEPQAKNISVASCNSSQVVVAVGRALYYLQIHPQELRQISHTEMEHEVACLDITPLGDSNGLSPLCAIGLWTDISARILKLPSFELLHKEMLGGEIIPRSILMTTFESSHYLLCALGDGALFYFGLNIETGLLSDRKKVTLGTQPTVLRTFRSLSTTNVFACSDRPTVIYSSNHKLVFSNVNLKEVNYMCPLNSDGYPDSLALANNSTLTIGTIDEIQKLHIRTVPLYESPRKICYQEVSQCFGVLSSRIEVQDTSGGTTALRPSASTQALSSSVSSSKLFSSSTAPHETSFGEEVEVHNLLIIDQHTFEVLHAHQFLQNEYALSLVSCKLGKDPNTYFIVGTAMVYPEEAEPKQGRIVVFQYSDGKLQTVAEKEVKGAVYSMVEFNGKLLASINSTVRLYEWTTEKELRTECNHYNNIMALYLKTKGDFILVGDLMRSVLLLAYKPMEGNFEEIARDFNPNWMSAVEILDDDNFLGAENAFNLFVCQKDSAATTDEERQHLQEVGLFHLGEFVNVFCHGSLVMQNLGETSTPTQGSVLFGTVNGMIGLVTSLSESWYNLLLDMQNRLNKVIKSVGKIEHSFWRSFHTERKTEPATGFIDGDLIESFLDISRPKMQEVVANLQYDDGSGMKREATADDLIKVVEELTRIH
endpoint: DC50

# compound, system_tested, endpoint, recorded_value
records = [
    ("CC(C)Nc1n[nH]c2c(CN3CCCC3)cc(-c3ccc4c(c3)C(C)N(C3CCC(=O)NC3=O)C4=O)nc12 (stereo not shown)", "IKZF2 (Homo sapiens (Human), UniProt Q96SW2+Q9UKS7)", "DC50", "1 to 10 nM"),
    ("O=C1CCC(N2Cc3c(ccc(-c4cc(CN5CCCC5)c5ccn(C6CS(=O)(=O)C6)c5n4)c3Cl)C2=O)C(=O)N1 (stereo not shown)", "IKZF2 (Homo sapiens (Human), UniProt Q96SW2+Q9UKS7)", "DC50", "1 to 10 nM"),
    ("Nc1n[nH]c2c(CN3CCC(O)C3)cc(-c3ccc4c(c3)CN(C3CCC(=O)NC3=O)C4=O)nc12 (stereo not shown)", "IKZF2 (Homo sapiens (Human), UniProt Q96SW2+Q9UKS7)", "DC50", "100 to 1000 nM"),
]

QUERY: Quick one: give measured DC50 for O=C1CCC(N2Cc3cc(-c4cc(CN5CCC6(CC5)COC6)cc5cncn45)ccc3C2=O)C(=O)N1 (stereo not shown)
RESULT: 1000 to 10000 nM
